- test-system: Neutrophil elastase (Homo sapiens)
- assay: Compound at an peroral dose of 30 mpk was tested for the inhibition of HLE-induced lung hemorrhage in hamsters
- Format: functional
Entries and their inhibition
quantity-kind: inhibition (%)

• CCC[C@]1(CC)C(=O)N(C(=O)N[C@H](C)c2ccccc2)[C@H]1Oc1ccc(C(=O)O)cc1 = 61
• CCC1(CC)C(=O)N(C(=O)NCc2ccccc2)[C@]1(C)Oc1ccc(C(=O)O)cc1 = 59
• CC[C@@]1(C(C)C)C(=O)N(C(=O)NCc2ccccc2)[C@H]1Oc1ccc(C(=O)O)cc1 = 13
• CCCC1(CCC)C(=O)N(C(=O)NCc2ccccc2)C1Oc1ccc(C(=O)O)cc1 (stereo not drawn) = 56
• CC[C@@]1(C)C(=O)N(C(=O)N[C@@H](C)c2ccccc2)[C@H]1Oc1ccc(C(=O)O)cc1 = 13
• CCC(C)[C@]1(CC)C(=O)N(C(=O)NCc2ccccc2)[C@H]1Oc1ccc(C(=O)O)cc1 (stereo partly drawn) = 23
• C=CC[C@]1(CC)C(=O)N(C(=O)NCc2ccccc2)[C@H]1Oc1ccc(C(=O)O)cc1 = 56
• CC[C@@]1(C)C(=O)N(C(=O)N[C@H](C)c2ccccc2)[C@H]1Oc1ccc(C(=O)O)cc1 = 82

Values compiled from ChEMBL document CHEMBL1128419.
